Procedure Details: ATG_SREBP_CIS: Attagene CIS-FACTORIAL HepG2 Assay for human Sterol Regulatory Element Binding (SREBP) (AID 2282962)
Applied Conditions: HepG2 Attagene cis-factorial SREBP reporter, mRNA; actives raise or lower the signal
Experimental: ATG_CIS is a cell-based, multiplexed-readout assay that uses HepG2, a human liver cell line, with measurements taken at 24 hours after chemical dosing in a 24-well plate.ATG_SREBP_CIS is one of 52 assay component(s) measured or calculated from the ATG_CIS assay. […] This assay endpoint, ATG_SREBP_CIS, was analyzed with bidirectional fitting relative to DMSO as the negative control and baseline of activity. […]
The source made the active and inactive calls. The calls were made as follows: active = hit-call score of the fitted dose curve at least 0.9, where 1 is the maximum; inactive = score below 0.9.
Outcomes: t (active), f (inactive)

[[record]]
compound = "C=CCOC(Cn1ccnc1)c1ccc(Cl)cc1Cl (stereo not given)"
cat = "t"

[[record]]
compound = "CCOC(=O)C(C)Oc1ccc(Oc2nc3ccc(Cl)cc3o2)cc1 (stereo not given)"
cat = "f"

[[record]]
compound = "CCCCOCCOCCOCc1cc2c(cc1CCC)OCO2"
cat = "f"

[[record]]
compound = "c1ccc(Nc2ccccc2)cc1"
cat = "f"

[[record]]
compound = "COC(=O)c1ccccc1S(=O)(=O)NC(=O)Nc1nc(OC(F)F)cc(OC(F)F)n1"
cat = "f"

[[record]]
compound = "CCOC(=O)C(C)Oc1ccc(Oc2cnc3cc(Cl)ccc3n2)cc1 (stereo not given)"
cat = "f"

[[record]]
compound = "c1ccc2[nH]c(-c3cscn3)nc2c1"
cat = "f"

[[record]]
compound = "CCSC(=O)N(CC(C)C)CC(C)C"
cat = "f"

[[record]]
compound = "CC1(C)C(C=C(Cl)Cl)C1C(=O)OCc1cccc(Oc2ccccc2)c1 (stereo not given)"
cat = "f"

[[record]]
compound = "N#CSCSc1nc2ccccc2s1"
cat = "f"

[[record]]
compound = "C#CCOC(=O)[C@@H](C)Oc1ccc(Oc2ncc(Cl)cc2F)cc1"
cat = "f"

[[record]]
compound = "COC(=O)CSc1cc(N=c2sc(=O)n3n2CCCC3)c(F)cc1Cl"
cat = "f"

[[record]]
compound = "C[C@]12CC[C@@H]3c4ccc(O)cc4C[C@@H](CCCCCCCCCS(=O)CCCC(F)(F)C(F)(F)F)[C@H]3[C@@H]1CC[C@@H]2O (stereo not given in full)"
cat = "f"

[[record]]
compound = "COC(=O)c1ccc(CNS(C)(=O)=O)cc1S(=O)(=O)NC(=O)Nc1nc(OC)cc(OC)n1"
cat = "f"

[[record]]
compound = "CCCN(CCC)C(=O)SCC"
cat = "f"

[[record]]
compound = "O=C(Nc1ccc([N+](=O)[O-])cc1Cl)c1cc(Cl)ccc1O"
cat = "t"

[[record]]
compound = "O=C(c1ccccc1)C1CCCCC1"
cat = "f"

[[record]]
compound = "Oc1ccc(C(c2ccc(O)cc2)C(Cl)(Cl)Cl)cc1"
cat = "f"

[[record]]
compound = "CCN(CC)C(=O)c1cccc(C)c1"
cat = "f"

[[record]]
compound = "CCCCC(CC)CN1C(=O)C2C3C=CC(C3)C2C1=O (stereo not given)"
cat = "f"

[[record]]
compound = "CCCCOC(=O)C(C)Oc1ccc(Oc2ccc(C(F)(F)F)cn2)cc1 (stereo not given)"
cat = "f"

[[record]]
compound = "N[C@@H](Cc1cc(I)c(Oc2ccc(O)c(I)c2)c(I)c1)C(=O)O"
cat = "f"

[[record]]
compound = "COC(=O)c1ccc(I)cc1S(=O)(=O)NC(=O)Nc1nc(C)nc(OC)n1"
cat = "f"

[[record]]
compound = "CCNc1nc(N)nc(Cl)n1"
cat = "f"

[[record]]
compound = "O=C(O)c1ccccc1"
cat = "f"

[[record]]
compound = "COCCO"
cat = "f"

[[record]]
compound = "CCCOC(=O)NCCCN(C)C"
cat = "f"

[[record]]
compound = "CCCOC(=O)c1ccc(C(=O)OCCC)nc1"
cat = "f"

[[record]]
compound = "CCOC(=O)NCCOc1ccc(Oc2ccccc2)cc1"
cat = "f"

[[record]]
compound = "COC(=O)c1c(Cl)nn(C)c1S(=O)(=O)NC(=O)Nc1nc(OC)cc(OC)n1"
cat = "f"

